Tested on: Escherichia coli
Test: Synergistic antibacterial activity against Escherichia coli CCUGT incubated for 18 to 24 hrs in presence of colistin by CLSI based microdilution broth method
Format: functional
Conditions: time 18-24 hrs
Measured Endpoint: MAC

{"Compound String": "CCNC(=N)NCCCCCCN(CCCCCCNC(=N)NCC1CC1)C(=O)N(CCCCCCNC(=N)NCC)CCCCCCNC(=N)NCC1CC1", "Target Of Assay": "Escherichia coli", "Observed": "8 µg/mL"}
{"Compound String": "N=C(N)NCCCCCCN(CCCCCCNC(=N)NCC1CC1)C(=O)N(CCCCCCNC(=N)N)CCCCCCNC(=N)NCC1CC1", "Target Of Assay": "Escherichia coli", "Observed": "1 µg/mL"}
{"Compound String": "O=C(O)C(F)(F)F.[N-]=[N+]=NCCCCCCCCN(CCCCCCCCNC(=N)N)C(=O)N(CCCCCCCCN=[N+]=[N-])CCCCCCCCNC(=N)N", "Target Of Assay": "Escherichia coli", "Observed": "32 µg/mL"}
{"Compound String": "N=C(N)NCCCCCCCCN(CCCCCCCCN)C(=O)N(CCCCCCCCN)CCCCCCCCNC(=N)NCC1CC1", "Target Of Assay": "Escherichia coli", "Observed": "0.5 µg/mL"}

Task: // MAC lookup, key: `N=C(N)NCCCCCCCCN(CCCCCCCCNC(=N)NCC1CC1)C(=O)NC(=N)NCCCCCCCCNCCCCCCCCNC(=N)NCC1CC1`
Output: 0.5 µg/mL

Entry source: ChEMBL document CHEMBL5500347
